biological target: human HDAC1 (Homo sapiens); construct: FLAG; made in house; host or cells: 293T cells, transient transfection; anti-FLAG immunoprecipitation and FLAG peptide elution; test: HDAC inhibitory activity in vitro (coumarin-labeled acetylated histone peptide), HDAC1; format: biochemical; settings: Table 1; 37° C., 30 minutes; read-out: IC50 (μM) HDAC1
Sequence (Q13547 whole entry): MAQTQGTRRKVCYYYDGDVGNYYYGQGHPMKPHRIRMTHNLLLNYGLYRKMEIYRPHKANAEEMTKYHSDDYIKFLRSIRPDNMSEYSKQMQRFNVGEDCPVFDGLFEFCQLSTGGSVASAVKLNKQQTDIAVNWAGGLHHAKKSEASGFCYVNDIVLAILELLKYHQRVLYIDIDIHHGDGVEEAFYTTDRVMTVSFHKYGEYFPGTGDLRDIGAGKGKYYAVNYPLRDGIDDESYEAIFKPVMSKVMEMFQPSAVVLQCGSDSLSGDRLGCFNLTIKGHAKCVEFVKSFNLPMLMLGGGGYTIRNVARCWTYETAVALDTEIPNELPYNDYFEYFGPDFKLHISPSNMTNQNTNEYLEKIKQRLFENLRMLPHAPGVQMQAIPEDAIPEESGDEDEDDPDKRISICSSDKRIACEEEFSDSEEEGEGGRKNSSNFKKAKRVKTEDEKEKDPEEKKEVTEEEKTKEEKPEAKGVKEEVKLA
Where a SMILES comes first, the peptide text is derived from it. [ ]: non-standard residue; d: D form. Asu = N[C@@H](CCCCCC(=O)O)C(=O)O
Endpoint Name: IC50 (µM)

# Compound, Unit Text, IC50
measured = [
    ("CC[C@H](C)[C@@H]1NC(=O)[C@@H](Cc2ccc(OC)cc2)NC(=O)[C@H](CCCCCC(=O)O)NC(=O)[C@H]2CCCN2C1=O [COOH, cyclo(L-Asu-D-Tyr(Me)-L-Ile-D-Pro)] (cyclo([Asu][dY](Me)I[dP]))", "µM", 4.07),
    ("CC[C@H](C)[C@@H]1NC(=O)[C@@H](Cc2ccc(OC)cc2)NC(=O)[C@H](CCCCCCN(O)C=O)NC(=O)[C@H]2CCCCN2C1=O", "µM", 6.36),
    ("CC[C@H](C)[C@@H]1NC(=O)[C@@H](Cc2ccc(OC)cc2)NC(=O)[C@H](CCCCN(O)C=O)NC(=O)[C@@H]2CCCCN2C1=O", "µM", 23.9),
    ("CC[C@H](C)[C@@H]1NC(=O)[C@@H](Cc2ccc(OC)cc2)NC(=O)[C@H](CCCCCC(=O)OC)NC(=O)[C@H]2CCCN2C1=O [COOMe] (cyclo([Asu](OMe)[dY](Me)I[dP]))", "µM", 0.12),
]

A. CC[C@H](C)[C@@H]1NC(=O)[C@@H](Cc2ccc(OC)cc2)NC(=O)[C@H](CCCCCCN(O)C=O)NC(=O)[C@@H]2CCCCN2C1=O
B. CC[C@H](C)[C@@H]1NC(=O)[C@@H](Cc2ccc(OC)cc2)NC(=O)[C@H](CCCCN(O)C=O)NC(=O)[C@H]2CCCCN2C1=O
Prompt: Of the two listed items, which has the higher IC50? First: A Second: B Mark your answer with the label of the selected entry.
Completion: B

###

target: mouse HDAC6 (Mus musculus, UniProt Q9Z2V5); construct: HA; made in house; host or cells: 293T cells, transient transfection; anti-HA immunoprecipitation and HA peptide elution; experiment: HDAC inhibitory activity in vitro (coumarin-labeled acetylated histone peptide), HDAC6; format: biochemical; details: Table 1; 37° C., 30 minutes; read-out: IC50 (μM) HDAC6
Sequence (Q9Z2V5 whole entry): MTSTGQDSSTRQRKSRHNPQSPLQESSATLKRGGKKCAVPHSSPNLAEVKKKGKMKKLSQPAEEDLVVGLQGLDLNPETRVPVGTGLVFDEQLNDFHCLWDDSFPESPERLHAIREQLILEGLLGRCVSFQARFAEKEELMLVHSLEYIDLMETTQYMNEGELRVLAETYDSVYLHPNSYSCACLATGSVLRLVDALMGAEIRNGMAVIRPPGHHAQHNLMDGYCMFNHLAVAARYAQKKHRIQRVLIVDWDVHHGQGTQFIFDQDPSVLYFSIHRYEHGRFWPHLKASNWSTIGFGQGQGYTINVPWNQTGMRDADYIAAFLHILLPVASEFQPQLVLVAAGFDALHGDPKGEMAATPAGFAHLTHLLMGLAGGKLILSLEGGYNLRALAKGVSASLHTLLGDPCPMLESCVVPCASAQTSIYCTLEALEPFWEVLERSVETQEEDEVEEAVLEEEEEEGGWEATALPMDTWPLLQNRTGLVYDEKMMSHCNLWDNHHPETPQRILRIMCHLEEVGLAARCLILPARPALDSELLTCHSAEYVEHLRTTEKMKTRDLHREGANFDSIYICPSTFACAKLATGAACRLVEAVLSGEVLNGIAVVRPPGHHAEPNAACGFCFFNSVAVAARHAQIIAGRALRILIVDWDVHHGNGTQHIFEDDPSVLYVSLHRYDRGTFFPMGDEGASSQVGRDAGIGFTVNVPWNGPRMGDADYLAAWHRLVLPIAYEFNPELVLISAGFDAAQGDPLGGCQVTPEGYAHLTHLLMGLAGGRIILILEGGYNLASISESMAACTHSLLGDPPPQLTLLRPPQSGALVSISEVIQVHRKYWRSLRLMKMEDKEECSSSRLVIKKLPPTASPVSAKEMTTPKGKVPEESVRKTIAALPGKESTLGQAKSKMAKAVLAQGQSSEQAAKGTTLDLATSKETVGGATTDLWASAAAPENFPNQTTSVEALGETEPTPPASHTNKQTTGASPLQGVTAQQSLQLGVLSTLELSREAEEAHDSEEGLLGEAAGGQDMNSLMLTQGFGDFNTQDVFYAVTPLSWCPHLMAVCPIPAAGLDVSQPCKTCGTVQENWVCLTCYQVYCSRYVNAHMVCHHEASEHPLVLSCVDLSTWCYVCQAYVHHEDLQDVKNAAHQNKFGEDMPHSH
Where a SMILES comes first, the peptide text is derived from it. [ ]: non-standard residue; d: D form. hLys(Nζ-OH,Nζ-For) = N[C@@H](CCCCCN(O)C=O)C(=O)O
Endpoint Name: IC50 (µM)

Consider the reported IC50 for these compounds:
# Compound, IC50 / µM
measured = [
    ("CC[C@H](C)[C@@H]1NC(=O)[C@@H](Cc2ccc(OC)cc2)NC(=O)[C@H](CCCCCC(=O)C(F)(F)F)NC(=O)[C@H]2CCCN2C1=O [Tfk, cyclo(-L-Tfm-D-Tyr(Me)-L-Ile-D-Pro-)]", 1.44),
    ("CC[C@H](C)[C@@H]1NC(=O)[C@@H](Cc2ccc(OC)cc2)NC(=O)[C@H](CCCCCN(O)C=O)NC(=O)[C@H]2CCCN2C1=O [N(OH)COH Cyclo(X-y(Me)-I-p), n = 5] (cyclo([hLys(Nζ-OH,Nζ-For)][dY](Me)I[dP]))", 0.78),
    ("CC[C@H](C)[C@@H]1NC(=O)[C@@H](Cc2ccc(OC)cc2)NC(=O)[C@H](CCCCSCC(=O)C(F)(F)F)NC(=O)[C@H]2CCCN2C1=O", 0.95),
    ("CC[C@H](C)[C@@H]1NC(=O)[C@@H](Cc2ccc(OC)cc2)NC(=O)[C@H](CCCCCCN(O)C=O)NC(=O)[C@@H]2CCCCN2C1=O", 11.2),
    ("CC[C@H](C)[C@@H]1NC(=O)[C@@H](Cc2ccc(OC)cc2)NC(=O)[C@H](CCCCN(O)C=O)NC(=O)[C@H]2CCCCN2C1=O", 14.3),
]

I. CC[C@H](C)[C@@H]1NC(=O)[C@@H](Cc2ccc(OC)cc2)NC(=O)[C@H](CCCCN(O)C=O)NC(=O)[C@@H]2CCCCN2C1=O
II. CC[C@H](C)[C@@H]1NC(=O)[C@@H](Cc2ccc(OC)cc2)NC(=O)[C@H](CCCCCCN(O)C=O)NC(=O)[C@H]2CCCCN2C1=O
Prompt: Could you tell me which of I and II has the lower IC50 reading? Mark your answer with the label of the selected entry.
Completion: I

Source listed as patent US7662778B2.
